# Target Of Assay: S2R (sigma-2 receptor) (Rattus norvegicus)
# Sequence (Q5U3Y7 whole entry): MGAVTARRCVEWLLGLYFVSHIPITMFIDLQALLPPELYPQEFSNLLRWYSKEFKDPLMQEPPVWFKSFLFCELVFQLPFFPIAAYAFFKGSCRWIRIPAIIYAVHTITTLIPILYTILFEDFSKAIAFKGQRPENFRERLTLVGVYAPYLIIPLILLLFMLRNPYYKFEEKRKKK
pKi: −log10 of the molar value.
Reported Endpoint: pKi

| Smiles Str | Reported Endpoint | Assay Result |
| --- | --- | --- |
| CC(=O)[C@H]1CC[C@H]2[C@@H]3CCC4=CC(=O)CC[C@]4(C)[C@H]3CC[C@]12C | pKi | 4.85 |
